Below: a set of entries, each annotated with reported composite z-score.
Test: COS7 lysate on small-molecule microarray, probe aHis, 635 nm (AID 1123);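 note: z-score combines 667nm fluorescence intensity with signal-to-noise per printed compound spot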
Settings: COS7 cell lysate, fluorescence, higher = more signal
property measured: composite z-score

compound	property measured	data value
COC(=O)CC=C[C@@H](C)[C@@H](C=NOCC[C@@H]1C=C[C@H](OC(C)=O)[C@@H](COC(C)=O)O1)NS(=O)(=O)c1ccc(C)cc1	composite z-score	-0.309
CO[C@@H]1COC(=O)CC=C[C@@H](C)[C@H](OC)COC(=O)[C@@H](C)COC(=O)CC=C[C@H]1C	composite z-score	-0.824
CO[C@H]1COC(=O)[C@@H](C)COC(=O)[C@H](COCc2ccccc2)NC(=O)CC=C[C@H]1C	composite z-score	-1.73
COC(=O)[C@H]1[C@@H](O)[C@@]2(O)c3ccccc3O[C@@]2(c2ccccc2)[C@@H]1c1ccccc1	composite z-score	0.19
CCOC(=O)[C@H](CC(C)C)NC(=O)CCC1CC(OC(=O)NCCc2ccc(F)cc2)CC2(CCCC(COC(=O)NCCOc3ccccc3)O2)O1 (stereo not given in full)	composite z-score	1.31
CO[C@@H]1COC(=O)[C@H](CCSC)NC(=O)CC=C[C@@H](C)COC(=O)[C@H](C)NC(=O)CC=C[C@H]1C	composite z-score	-0.395
CCOC(=O)CCN1C(=O)[C@H]2[C@H]3[C@H](O)[C@H](O)CC(=NOCC(C)C)[C@H]3CC[C@H]2C1=O	composite z-score	0.163
CO[C@H]1COC(=O)CC=C[C@H](C)[C@@H](OC)COC(=O)[C@H](C)COC(=O)CC=C[C@@H]1C	composite z-score	-0.552
CON=C1[C@H]2CCn3c(=O)n(-c4ccccc4)c(=O)n3[C@H]2[C@H](O)[C@@H]2O[C@H]12	composite z-score	-0.364
C[C@@H]1C=CCC(=O)OC[C@H]2O[C@@H](C=C[C@@H]2O)[C@H](C)C=CCC(=O)OC1	composite z-score	-1.26
C#CCCCON=C1C[C@@H](O)[C@@H](O)[C@@H]2[C@@H]3C(=O)N(CCC(=O)OCC)C(=O)[C@@H]3CC[C@H]12	composite z-score	0.769
O=C(NN=C1C[C@@H](O)[C@@H](O)[C@@H]2[C@@H]3C(=O)N(Cc4ccccc4)C(=O)[C@@H]3CC[C@@H]12)OCc1ccccc1	composite z-score	-0.723
CC1O[C@H]2C3=C(C(=O)[C@@H]4O[C@@H]4[C@H]3O)[C@@H]1C1[C@@H](C)OC=C3[C@H](O)C4O[C@@H]4C(=NOCc4ccccc4)[C@]312 (stereo not given in full)	composite z-score	0.355
C[C@H]1CC[C@H]2C(=O)O[C@H](COc3ccc(C(C)(C)C)cc3)CN2[C@@H]1c1ccc(Br)cc1	composite z-score	0.263
COCCNC(=O)OCC1CCCC2(CC(OC(=O)NCc3ccc4c(c3)OCO4)CC(CCC(=O)N[C@@H](C)C(=O)OC)O2)O1 (stereo not given in full)	composite z-score	0.678

----------
Molecular target: Albumin (Bos taurus)
Assay: bovine serum albumin binders on microarray, profiling panel, artefact control for SMM control protein annotation, biochemical, small-molecule microarray, Alexa647 label, 635/667 nm fluorescence (AID 1118);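 note: score merges 667 nm emission intensity and signal-to-noise per printed compound spot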
Settings: BSA-A647 binding, fluorescence 635 nm, higher = more signal
Below, each entry is listed with its recorded composite z-score.
property measured: composite z-score

                                   compound  property_measured  data_value
0  CCOC(=O)[C@H](CC(C)C)NC(=O)CCC1CC(OC(=O)NCc2cccc3ccccc23)CC2(CCCC(COC(=O)NCC3CCCCC3)O2)O1 (some centres not stated)  composite z-score        0.14
1      CC=CC1=C(CO)C(=O)[C@@H]2O[C@@H]2C1=O  composite z-score      -0.651
2  O=C1[C@H]2[C@H]3[C@H](O)[C@H](O)CC(=NO[C@@H]4O[C@H](CO)[C@@H](O)[C@H](O)[C@H]4O)[C@H]3CC[C@H]2C(=O)N1c1cccc(Oc2ccccc2)c1  composite z-score     -0.0534
3  CCCNC(=O)OC[C@H]1O[C@H](CCON=C(C)CCN2CCc3nc(CC)c(CC)cc3C2)C=C[C@@H]1Oc1ccc(OC)cc1  composite z-score       0.322
4  O=C(NN=C1C[C@@H](O)[C@@H](O)[C@@H]2[C@@H]3C(=O)N(Cc4ccccc4)C(=O)[C@@H]3CC[C@@H]12)OCc1ccccc1  composite z-score      -0.225
5  O=C(NN=C1C[C@@H](O)[C@@H](O)[C@@H]2[C@@H]3C(=O)N(C4CCCCC4)C(=O)[C@@H]3CC[C@H]12)OCc1ccccc1  composite z-score       0.885
6  C[C@H]1COC(=O)[C@@H]2CCCN2C(=O)[C@@H](C)COC(=O)[C@H](Cc2ccccc2)NC1=O  composite z-score     -0.0588

----------
Assay: E. coli DRC41 culture turbidity changes, primary screen, E. coli filamentation inducer project, strain DRC41, OD650, 48 h (AID 1152);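 note: E. coli MC1000 strain DRC41 lacking acrAB efflux pump and sulA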
Conditions: E. coli DRC41 (acrAB sulA), higher = more signal, called active from +8 up or from −8 down
# if value of z-score reaches -0.2, tag label 1; if it stays below, tag label 0

compound	class assignment
CC(C)=CCCC(C)=CCON=C1C[C@@H](O)[C@@H](O)[C@@H]2[C@@H]3C(=O)N(Cc4ccccc4)C(=O)[C@@H]3CC[C@H]12	label 1
COc1ccc(O[C@H]2C=C[C@@H](c3ccccc3)O[C@@H]2CON=C2[C@H]3CCn4c(=O)n(-c5ccccc5)c(=O)n4[C@H]3[C@H](O)[C@@H]3O[C@H]23)cc1	label 0
CCOC(=O)NN=C1C[C@@H](O)[C@@H](O)[C@@H]2[C@@H]3C(=O)N(c4ccc(F)cc4F)C(=O)[C@@H]3CC[C@@H]12	label 0
CCOC(=O)[C@H](Cc1ccccc1)NC(=O)CCC1CC(OC(=O)NCc2cccc3ccccc23)CC2(CCCC(COC(=O)NCC(c3ccccc3)c3ccccc3)O2)O1 (stereo partly specified)	label 1
CCOC(=O)[C@H](Cc1ccccc1)NC(=O)CCC1CC(OC(=O)NCc2ccc3c(c2)OCO3)CC2(CCCC(COC(=O)NCCC(C)C)O2)O1 (stereo partly specified)	label 1
CO[C@H]1COC(=O)CC=C[C@@H](C)[C@H](OC)COC(=O)[C@@H]2CCCN2C(=O)CC=C[C@@H]1C	label 1

----------
Assay: PSAC antagonists in infected red cells, primary screen, cell-based, P. falciparum Indochina, OD700, 1 h (AID 1154)
Conditions: P. falciparum Indochina infected RBC osmotic lysis, higher = more signal, called active from +8 up or from −8 down
Measured z-score, listed per entry for reference.
property measured: z-score

In [3]: df
Out[3]:
                                   compound  property_measured  data_value
0  CO[C@H]1COC(=O)[C@@H](C)COC(=O)[C@H](C)NC(=O)CC=C[C@H]1C            z-score     -0.0875
1  CO[C@@H]1COC(=O)[C@H](CCSC)NC(=O)CC=C[C@@H](C)COC(=O)CCC[C@H]1C            z-score        19.7
2  CO[C@H]1COC(=O)[C@H](C)NC(=O)[C@@H](C)COC(=O)[C@H]2CCCN2C(=O)CC=C[C@H]1C            z-score       0.551
3  CCOC(=O)[C@H](CC(C)C)NC(=O)CCC1CC(OC(=O)NCc2ccc3c(c2)OCO3)CC2(CCCC(COC(=O)NCC3CCCCC3)O2)O1 (some centres not stated)            z-score        1.35
4  C#CCCCON=C1C[C@@H](O)[C@@H](O)[C@@H]2[C@@H]3C(=O)N(CC)C(=O)[C@@H]3CC[C@@H]12            z-score       0.299
5  Cc1ccc(S(=O)(=O)OC[C@H]2CN3[C@H](c4ccc(Br)cc4)[C@@H](C)CC[C@H]3C(=O)O2)cc1            z-score        3.18
6  COc1ccc(O[C@H]2C=C[C@@H](c3ccccc3)O[C@@H]2CON=C(C)CCC(=O)OC[C@H]2O[C@H](c3ccccc3)C=C[C@@H]2Oc2ccc(OC)cc2)cc1            z-score        0.99

----------
Experiment: A549 lung cancer cell viability effects, profiling panel, resazurin fluorescence, 24 h, PK04 Diversity Set (AID 1171); note: test concentration not given here
Settings: higher = more signal, called active from +8 up or from −8 down
Where z-score equals or exceeds -0.3, the correct label is YES; where it does not, the label is NO.

                                   compound  class_assignment
0  COc1ccc(O[C@H]2C=C[C@@H](c3ccccc3)O[C@@H]2CON=C2[C@H]3CCn4c(=O)n(-c5ccccc5)c(=O)n4[C@H]3[C@H](O)[C@@H]3O[C@H]23)cc1                NO
1  O=C(NN=C1C[C@@H](O)[C@@H](O)[C@@H]2[C@@H]3C(=O)N(C[C@@H]4CCCO4)C(=O)[C@@H]3CC[C@@H]12)OCc1ccccc1                NO
2  COC(=O)CC=C[C@@H](C)[C@@H](C=NOC[C@H]1O[C@H](c2ccccc2)C=C[C@@H]1Oc1ccc(OC)cc1)OC               YES
3  CCOC(=O)NN=C1C[C@@H](O)[C@@H](O)[C@@H]2[C@@H]3C(=O)N(c4cccc(Oc5ccccc5)c4)C(=O)[C@@H]3CC[C@H]12               YES
4  COc1cccc([C@H]2Oc3ccc(OC)cc3C(=NOC(C)CN3CCCCc4nc(C)c(C)cc43)[C@@H]2O)c1 (some centres not stated)                NO
5  O=C1[C@H]2[C@H]3[C@H](O)[C@H](O)CC(=NOCc4ccccc4)[C@@H]3CC[C@H]2C(=O)N1Cc1ccc2c(c1)OCO2               YES
6  C#CCCCON=C1C[C@@H](O)[C@@H](O)[C@@H]2[C@@H]3C(=O)N(CC)C(=O)[C@@H]3CC[C@@H]12                NO

Measured values drawn from PubChem BioAssay for this set.
